Where do these numbers come from? They come from patent US20220170930A1.

Molecular target: HTTexon1-Q72-MBP (Homo sapiens, UniProt P42858, INS38QQQQQQQQQQQQQQQQQQQQQQQQQQQQQQQQQQQQQQQQQQQQQQQQQQQ)
Construct: made in house; host or cells: mammalian expression vector pTT5SH8Q2
Sequence (P42858 with tags, fused parts or gaps, stated change not applied): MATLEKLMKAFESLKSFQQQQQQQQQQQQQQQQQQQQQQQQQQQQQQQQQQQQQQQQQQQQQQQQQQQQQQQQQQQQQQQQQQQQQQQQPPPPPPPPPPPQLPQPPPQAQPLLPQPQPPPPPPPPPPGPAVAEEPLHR
Assay: OI-RD affinity screening and affinity reaction parameters with HTTexon1-Q72
Format: binding
pKd: −log10 of the molar value.

[
  {
    "molecule": "Cc1ccc(C(=O)N(CCCN)[C@@H](c2nc3cc(Cl)ccc3c(=O)n2Cc2ccccc2)C(C)C)cc1 [compound 2, ispinesib]",
    "pKd": 7.53
  }
]

====

Molecular target: Q46-GFP
Experiment: OI-RD affinity reaction parameters with Q46-GFP
pKd: −log10 of the molar value.
quantity-kind: pKd

[
  {
    "compound": "O=C1Nc2ccc(I)cc2/C1=C/c1cc(Br)c(O)c(Br)c1 [compound 1, GW5074]",
    "test-system": "Q46-GFP",
    "readout-value": 7.22
  }
]

====

Target: LC3B (Homo sapiens, UniProt Q9GZQ8)
Construct: His8 (N, cleaved yes); GST (from pGEX-6P1) (N, cleaved yes); made in house; host or cells: E. coli BL21(DE3)pLsyS
Experiment: MST affinity with LC3B
Assay type: binding
Details: MST, LC3B, protein 500 nM; read-out: Kd

[
  {
    "structure-notation": "O=C1Nc2ccc(I)cc2/C1=C/c1cc(Br)c(O)c(Br)c1",
    "Kd, µM": 4.76
  }
]

====

Target: flHTT-Q73 (Homo sapiens, UniProt P42858, INS38QQQQQQQQQQQQQQQQQQQQQQQQQQQQQQQQQQQQQQQQQQQQQQQQQQQQ)
Construct: LC3B, full-length mHTT (flHTT-Q73) and full-length HTT-Q23 (flHTT-Q23); protein A (N, cleaved yes); made in house; host or cells: human embryonic kidney E293 cells
Sequence (P42858 with tags, fused parts or gaps with the stated changes): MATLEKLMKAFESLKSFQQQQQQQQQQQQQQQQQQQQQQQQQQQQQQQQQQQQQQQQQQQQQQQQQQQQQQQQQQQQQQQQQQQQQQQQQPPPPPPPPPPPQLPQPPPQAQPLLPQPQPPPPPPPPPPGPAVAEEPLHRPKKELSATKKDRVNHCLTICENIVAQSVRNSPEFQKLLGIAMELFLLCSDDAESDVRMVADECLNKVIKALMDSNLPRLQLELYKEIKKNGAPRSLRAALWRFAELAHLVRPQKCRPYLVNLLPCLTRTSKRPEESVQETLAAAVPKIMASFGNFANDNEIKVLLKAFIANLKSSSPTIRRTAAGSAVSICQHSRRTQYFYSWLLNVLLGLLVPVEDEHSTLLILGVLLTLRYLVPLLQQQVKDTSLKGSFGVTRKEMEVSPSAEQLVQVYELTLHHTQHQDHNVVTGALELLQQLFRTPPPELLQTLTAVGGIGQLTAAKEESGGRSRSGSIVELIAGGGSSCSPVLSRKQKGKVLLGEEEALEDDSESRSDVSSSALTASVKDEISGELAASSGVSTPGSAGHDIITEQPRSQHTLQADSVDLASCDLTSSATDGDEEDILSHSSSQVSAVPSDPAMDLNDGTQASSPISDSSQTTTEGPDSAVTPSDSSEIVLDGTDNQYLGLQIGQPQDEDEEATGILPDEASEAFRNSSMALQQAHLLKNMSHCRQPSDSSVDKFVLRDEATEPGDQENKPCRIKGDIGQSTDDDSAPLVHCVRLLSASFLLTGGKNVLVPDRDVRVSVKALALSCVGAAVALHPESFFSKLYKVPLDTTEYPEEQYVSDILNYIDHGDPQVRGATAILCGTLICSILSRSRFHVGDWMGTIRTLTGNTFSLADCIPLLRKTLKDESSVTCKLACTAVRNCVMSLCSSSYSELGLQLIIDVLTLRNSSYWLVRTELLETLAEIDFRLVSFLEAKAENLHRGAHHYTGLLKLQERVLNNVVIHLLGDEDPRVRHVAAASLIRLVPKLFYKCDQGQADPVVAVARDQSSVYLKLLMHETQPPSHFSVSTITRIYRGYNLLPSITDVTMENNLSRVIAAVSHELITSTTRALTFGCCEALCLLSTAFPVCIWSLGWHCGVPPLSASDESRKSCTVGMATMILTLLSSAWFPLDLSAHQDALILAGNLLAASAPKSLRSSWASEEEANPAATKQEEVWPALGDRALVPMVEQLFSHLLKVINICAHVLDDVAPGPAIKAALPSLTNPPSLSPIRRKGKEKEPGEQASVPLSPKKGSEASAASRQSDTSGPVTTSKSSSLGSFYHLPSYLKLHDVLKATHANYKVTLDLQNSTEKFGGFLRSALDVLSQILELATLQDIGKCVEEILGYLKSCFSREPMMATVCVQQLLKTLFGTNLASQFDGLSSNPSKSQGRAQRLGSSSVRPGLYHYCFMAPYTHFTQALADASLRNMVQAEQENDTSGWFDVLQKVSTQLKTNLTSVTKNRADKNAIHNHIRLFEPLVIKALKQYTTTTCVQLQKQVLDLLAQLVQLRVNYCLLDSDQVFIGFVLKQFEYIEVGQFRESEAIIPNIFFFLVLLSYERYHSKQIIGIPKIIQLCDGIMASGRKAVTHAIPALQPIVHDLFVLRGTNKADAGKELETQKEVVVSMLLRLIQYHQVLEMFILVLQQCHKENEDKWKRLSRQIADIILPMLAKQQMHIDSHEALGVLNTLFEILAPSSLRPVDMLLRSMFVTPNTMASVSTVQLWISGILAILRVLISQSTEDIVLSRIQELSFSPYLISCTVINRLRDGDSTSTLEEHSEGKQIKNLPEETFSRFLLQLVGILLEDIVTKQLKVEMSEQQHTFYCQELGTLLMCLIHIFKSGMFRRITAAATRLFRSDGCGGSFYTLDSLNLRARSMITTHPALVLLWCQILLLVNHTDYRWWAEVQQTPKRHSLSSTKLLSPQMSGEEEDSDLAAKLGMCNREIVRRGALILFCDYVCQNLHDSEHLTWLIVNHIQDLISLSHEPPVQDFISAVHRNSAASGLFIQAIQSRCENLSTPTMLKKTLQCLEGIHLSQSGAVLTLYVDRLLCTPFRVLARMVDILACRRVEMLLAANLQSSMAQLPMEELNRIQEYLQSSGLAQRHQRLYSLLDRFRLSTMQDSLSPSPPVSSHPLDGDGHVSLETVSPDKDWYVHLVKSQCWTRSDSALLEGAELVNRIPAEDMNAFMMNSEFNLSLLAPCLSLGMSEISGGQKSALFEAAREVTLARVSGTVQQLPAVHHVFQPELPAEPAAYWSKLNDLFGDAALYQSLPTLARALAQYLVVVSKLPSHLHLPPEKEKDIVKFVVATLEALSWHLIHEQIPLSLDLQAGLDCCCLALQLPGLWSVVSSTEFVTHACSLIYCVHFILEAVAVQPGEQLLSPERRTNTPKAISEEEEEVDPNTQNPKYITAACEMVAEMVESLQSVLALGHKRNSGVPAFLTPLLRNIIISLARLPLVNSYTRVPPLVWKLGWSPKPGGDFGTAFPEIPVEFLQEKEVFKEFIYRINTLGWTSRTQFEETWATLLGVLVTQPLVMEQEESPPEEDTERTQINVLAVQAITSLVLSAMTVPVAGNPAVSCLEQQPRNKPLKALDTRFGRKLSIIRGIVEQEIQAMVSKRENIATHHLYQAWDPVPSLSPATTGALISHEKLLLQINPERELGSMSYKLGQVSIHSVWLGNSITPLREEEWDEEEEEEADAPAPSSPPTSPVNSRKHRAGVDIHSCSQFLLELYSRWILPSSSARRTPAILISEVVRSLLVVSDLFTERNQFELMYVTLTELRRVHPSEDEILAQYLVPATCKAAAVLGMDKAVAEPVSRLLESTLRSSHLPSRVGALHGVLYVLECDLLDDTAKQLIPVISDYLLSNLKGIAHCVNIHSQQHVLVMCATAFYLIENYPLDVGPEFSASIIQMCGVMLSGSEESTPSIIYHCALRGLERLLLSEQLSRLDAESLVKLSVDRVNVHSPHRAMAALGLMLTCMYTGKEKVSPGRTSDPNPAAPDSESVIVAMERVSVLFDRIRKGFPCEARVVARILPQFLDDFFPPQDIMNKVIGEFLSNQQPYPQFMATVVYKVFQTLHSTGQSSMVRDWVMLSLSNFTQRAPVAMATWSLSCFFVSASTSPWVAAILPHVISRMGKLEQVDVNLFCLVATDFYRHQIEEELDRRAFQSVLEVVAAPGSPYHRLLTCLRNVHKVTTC
Assay: MST affinity with flHTT-Q73
Type: binding
Conditions: MST, flHTT-Q73, protein 500 nM; read-out: Kd
quantity-kind: Kd (µM)

[
  {
    "compound": "O=C1Nc2ccc(I)cc2/C1=C/c1cc(Br)c(O)c(Br)c1 [compound 1, GW5074]",
    "readout-value": 3.46
  }
]

====

Target: Q38-GFP
Test: OI-RD affinity reaction parameters with Q38-GFP
pKd: −log10 of the molar value.

[
  {
    "molecule": "O=C1Nc2ccc(I)cc2/C1=C/c1cc(Br)c(O)c(Br)c1 [compound 1, GW5074]",
    "pKd": 5.72
  }
]

====

Molecular target: Q72-GFP
Assay: OI-RD affinity reaction parameters with Q72-GFP
Type: binding
pKd: −log10 of the molar value.

[
  {
    "structure-notation": "O=C1Nc2ccc(I)cc2/C1=C/c1cc(Br)c(O)c(Br)c1",
    "pKd": 6.74
  }
]

====

Molecular target: MBP-ATXN3-Q68 (Homo sapiens, UniProt P54252, INS305QQQQQQQQQQQQQQQQQQQQQQQQQQQQQQQQQQQQQQQQQQQQQQQQQQQQQQQQQQ)
Sequence (P54252 with tags, fused parts or gaps isoform P54252-4 with the stated changes): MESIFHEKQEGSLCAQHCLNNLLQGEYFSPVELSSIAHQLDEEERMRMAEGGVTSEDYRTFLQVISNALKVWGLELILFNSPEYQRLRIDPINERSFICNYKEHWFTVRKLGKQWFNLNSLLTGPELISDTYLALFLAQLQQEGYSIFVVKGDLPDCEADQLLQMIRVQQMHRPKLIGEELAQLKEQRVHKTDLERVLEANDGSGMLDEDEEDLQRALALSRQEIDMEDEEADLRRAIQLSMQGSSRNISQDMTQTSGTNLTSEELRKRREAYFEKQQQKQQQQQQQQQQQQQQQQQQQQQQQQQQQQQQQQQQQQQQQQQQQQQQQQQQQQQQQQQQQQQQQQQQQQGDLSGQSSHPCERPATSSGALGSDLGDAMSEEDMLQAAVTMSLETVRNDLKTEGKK
Assay: MST affinity with MBP-ATXN3-Q68
Listed here are molecules together with their documented Kd.

[
  {
    "structure-notation": "O=C1Nc2ccc(Br)cc2/C1=C/c1cc(O)c(O)c(Br)c1",
    "Kd [µM]": 1.02
  },
  {
    "structure-notation": "O=C1Nc2ccc(I)cc2/C1=C/c1cc(Br)c(O)c(Br)c1",
    "Kd [µM]": 6.32
  }
]
